Data provenance is paper PMC6917776.

- Method: CelltiterGlo viability cell assay
- Format: cell-based
- Experimental parameters: human, SKMM2 multiple myeloma cells, SKMM2, 6 day, 9.5 uM; read-out: viability Replicate 3
Measure: viability at 6 day, 9.5 µM (%)

>>> endpoint_result("COc1cc(OC)cc(-c2noc(N3CCN(C)C4(CCN(c5ccnc(C)c5)CC4)C3)n2)c1 [MRK-740]")
97.7

====

- Method: CelltiterGlo viability cell assay
- Type: cell-based
- Experimental parameters: human, CAL851 breast cancer cells, CAL851, 6 day, 9.5 uM; read-out: viability Replicate 1
Measure: viability at 6 day, 9.5 µM (%)

>>> endpoint_result("COc1cc(OC)cc(-c2noc(N3CCN(C)C4(CCN(c5ccnc(C)c5)CC4)C3)n2)c1")
59.9
